# Tested on: HBEGF locus
# Assay type: cell-based, human
# condition-set: high-throughput screen of dXR repression of the HBEGF gene; change in abundance of each domain in the library before and after diphtheria toxin selection
readout: Log2 (fold change)
Write the value as a bare number.

Reported Log2 (fold change) for DOMAIN_6952 (protein, listed as Alligator mississippiensis) DQLQEAFEDVALYFTQNEWELLGDGDKVLYRDQMLRNYQALVSLGYQGPAPDLISRIQRQEVELWVCEEENPGESVWTEGL : what is it? 2.3403

Reported Log2 (fold change) for DOMAIN_6445 (protein, listed as Alligator sinensis) MELREAFEDVAVYFTRKEWELLEDEDKELYRDLMLRNYQALVSLGYQGPTPGLICRIKQREVELWVCDDEHHGESSVSENL : what is it? 3.1151

Reported Log2 (fold change) for DOMAIN_13539 (protein, listed as Gorilla sp.) CYQDSVTFDDVAVDFTQEEWTLLDSTQRSLYSDVMLENYKNLATVGGQIIKPSLISWLEQEESRTVQGGVLRGRKTQWRGT : what is it? 3.4924

Reported Log2 (fold change) for DOMAIN_7098 (protein, Microcaecilia unicolor) QVPVIFEDVAVYFWEEEWEMLEEWQKELYKETMKENYKTLVSLGMELPTEKPDLIVRIEREENPCVKAQWDSRDKTRWRNS : what is it? 2.7074

Reported Log2 (fold change) for DOMAIN_31643 (protein, listed as Micrurus lemniscatus) FREVSVYFSEEEWSWLDPDQKALYWEVMLENHRNMASLGDDGQENKDSYELLQGITARDTMETSAIEMEVERYKEKQSDDWNQESSSCTDDSV : what is it? 3.8782

Reported Log2 (fold change) for DOMAIN_2754 (protein, listed as Hylobates sp.) MAGEAEAQLDPSLQGLVMFEDVTVYFSREEWGLLNVTQKGLYRDVMLENFALVSSLGLAPSRSPVFTQLEDDEQSWVPNWV : what is it? 3.7601
